meta.source: patent US20240092922A1

Listed below: percentage of cells with FITC signal values for each entry.
- TARGET_OR_SYSTEM: T1, human 4-1BB (h4-1BB) on transiently transfected CHO cells (human, UniProt Q07011 24-255)
- T1 construct: also called TNFRSF9; CD137
- ASSAY_COMMENT: flow cytometry, CHO cells transfected with human 4-1BB, antibody at 0.01 µg/ml
Report only the number, with the unit % understood.

| BINDER | EXPERIMENTAL_VALUE |
| --- | --- |
| 61-6A7 (antibody, V domains shown, mouse antibody purified from ascites) VH: EVQLQQSGAELVRPGALVKLSCKASGFNIKDYYMHWVKRRPEQGLEWIGWIDPENGNTIYDPKFQDKASITADTSSNTAYLQLSSLTSEDTAVYYCAEGLPWYFDYWGQGTTLTVSS VL: QIILTQSPALMSASPGEKVTMTCSASSSVSDMNWYQQKPRSSPTPWIYLTSNLSSGVPDRFSGSGSGTSYSLTISSMEAEDAATYYCQQWSGNPLTFGAGTRLELK | 17 |
| 45-4B9 (antibody, V domains shown, mouse antibody purified from ascites) VH: EVQLQQSGPELVKPGASVKMSCKASGYTFTTYVMYWVKQRPGQGLEWIGYINPYNDDIRYNEKFKGKATLTSDRSSSTAYMELSSLTSEDSAVYLCARQGGDYWGQGTILTVSS VL: DVQITQSPSYLAASPGETITVNCRASKNINKYLAWYQEKPGKTNKLLIYSGSTLQSGIPSRFSGSGSGTDFTLTISSLEPEDFAVYHCQQYNEYPLTFGAGTKLEMK | 1.2 |
| 29-6A5 (antibody, V domains shown, mouse antibody purified from ascites) VH: QVQLQQPGAELVRPGASVKLSCKASGYTFSSYWINWVKQRPGQGLEWIGNIYPSDSYTNYNQKFKDKATLTVDKSSSTAYMQLSSPTSDDSAVYYCTRTWEFYYDSVFDYWGQGTTLTVSS VL: DIKMTQSPSSMYASLGERVTITCKASQDINSYLSWFQQKPGKSPKTLIYRANRLVDGVPSRFSGSGSGQDYSLTISSLEYEDMGIYYCLQYDELPPTFGGGTKLEIK | 47.4 |
| 54-8B11 (antibody, V domains shown, mouse antibody purified from ascites) VH: QIQLVQSGPELKKPGETVKISCKASKFTFTNYGMNWVKQAPGKALKWMGWINTYTGEPTYADDFKGRFDFSLETSATTAYLQINNLKNEDTATYFCARREYYPWVFVYWGQGTLVTVSA VL: ENVLTQSPAIMSASPGEKVTMTCSASSSVSYMHWYQQKSSTSPKLWIYDTSKLASGVPGRFSGSGSGNSYSLTISSMEAEDVATYYCFQGSGYPLTFGGGTKLEIK | 0.445 |
| 69-3C2 (antibody, V domains shown, mouse antibody purified from ascites) VH: DVQLVESGGGLVQPGGSRKLSCAASGFSFSSFGMHWMRQAPEKGLEWVAYISSGSSAIYYADTVKGRFTISRDNPKNTLFLQMTSLRSEDTAMYYCARDWVDYWGQGTTLTVSS VL: DIQMTQSPASLSVSVGETVTITCRASENIYSNLVWYQQKQGKSPQLLVYTATKLTNGVPSRFSGSGSGTQYSLKINSLQSEDFGTYYCQHFWDTPYTFGGGTKLEMK | 26.2 |
| 45-8E2 (antibody, V domains shown, mouse antibody purified from ascites) VH: EVKLLESGGGLVQPGGSLKLSCAASGFDFSRYWMSWVRQAPGKGLEWIGEIHPDSSAINYTPSLKDKFIISRDNAKNTLYLQMSKVRSEDTALYYCARSYYGRVFDYWGQGTTLTVSS VL: DIVMTQSPATLSVTPGDRVSLSCRASQSISDYLHWYQQKSHESPRLLIKYASQSISGIPPRFSGSGSGSDFTLSINSVEPEDVGMYYCQDGHSFPPTFGAGTKLELK | 9.06 |

Note: attention shifts to another entry.
Lookup result for 55-8F6 (antibody, V domains shown, mouse antibody purified from ascites) VH: QVQLQQPGAELVRPGASVKLSCKASGYIFTSYWINWVKQRPGQGLEWIGNIYPSDSYTNYNQKFKDKATLTVDKSSSTAYMQLSSPTSEDSAVYYCTRFHYGSSPFDNWGQGTTLTVSS VL: DIQMTQSTSSLSASLGDRVTISCRASQDISHYLNWYQQKPDGTVKLLIYYTSRLHSGVPSRFSGSGSGTDYSLTISNLEQEDFATYFCQQGHTLPRTFGGGTKLEIK ; measured percentage of cells with FITC signal: 0.571
